Sourced from patent US9926297B2

- tgt: human muscarinic M4 receptor (Homo sapiens)
- Construct: expressed in transfected cells
- Sequence (P08173 whole entry): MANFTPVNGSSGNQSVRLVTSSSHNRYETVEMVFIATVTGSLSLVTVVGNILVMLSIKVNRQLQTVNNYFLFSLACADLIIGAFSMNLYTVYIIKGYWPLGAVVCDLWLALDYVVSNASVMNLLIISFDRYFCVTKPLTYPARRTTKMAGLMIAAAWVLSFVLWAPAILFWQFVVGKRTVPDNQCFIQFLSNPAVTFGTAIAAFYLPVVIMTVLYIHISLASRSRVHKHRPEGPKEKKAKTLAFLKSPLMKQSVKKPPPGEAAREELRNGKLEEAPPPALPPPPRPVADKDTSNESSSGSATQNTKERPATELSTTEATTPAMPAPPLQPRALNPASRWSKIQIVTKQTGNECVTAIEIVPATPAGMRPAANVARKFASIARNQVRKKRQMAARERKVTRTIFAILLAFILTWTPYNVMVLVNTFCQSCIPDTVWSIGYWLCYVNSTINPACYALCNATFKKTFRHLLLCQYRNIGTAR
- protocolText: Alphascreen Surefire phospho-ERK1/2 functional assay, M4
- Type: cell-based
- studyConditions: CHO, read-out: % Emax cf. ACh, M4, CHO cells stably expressing human M4; relative to ACh
endpointLabel: Emax (%)

Use these answered entries as a reference point.
CCOC(=O)N1CCC2(CC(N3CCC(c4ncc(C)n4C)CC3)C2)C1 (single isomer, unassigned) [1-10 Isomer 2] | 106
COC(=O)N1CCC2(CC(N3CCC(C4CCCN4C(=O)OC)CC3)C2)C1 (single isomer, unassigned) [2-10 Isomer 2] | 50
CCOC(=O)N1CCC2(CC(N3CCC([C@@H]4CCCN4c4ncccn4)CC3)C2)C1 (single isomer, unassigned) [2-81 Isomer 2] | 33
CCOC(=O)N1CCC2(CC(N3CCC([C@@H]4CCCN4C(=O)NCCOC)CC3)C2)C1 (single isomer, unassigned) [2-31 Isomer 2] | 108
CCOC(=O)N1CCC2(CC(N3CCC(N4CC(F)(F)C[C@H]4C(=O)N(C)C)CC3)C2)C1 (single isomer, unassigned) [2-94 Isomer 2] | 80

[I] CCOC(=O)N1CCC2(CC(N3CCC(c4c(C)cnn4C)CC3)C2)C1 (single isomer, unassigned) [1-58 Isomer 2]
[II] CCOC(=O)N1CCC2(CC(N3CCC(N4CC5CC5C4)CC3)C2)C1 (single isomer, unassigned) [2-105 Isomer 2]
Exercise: Which entry has a larger number for Emax, I or II ? Your answer should be the label attached to the chosen record.
Key: I
(I: 93%, II: 38%)
